Numbers sourced from ChEMBL document CHEMBL1149234.

- tested target: Cathepsin K (Homo sapiens, UniProt P43235)
- Sequence (P43235 whole entry): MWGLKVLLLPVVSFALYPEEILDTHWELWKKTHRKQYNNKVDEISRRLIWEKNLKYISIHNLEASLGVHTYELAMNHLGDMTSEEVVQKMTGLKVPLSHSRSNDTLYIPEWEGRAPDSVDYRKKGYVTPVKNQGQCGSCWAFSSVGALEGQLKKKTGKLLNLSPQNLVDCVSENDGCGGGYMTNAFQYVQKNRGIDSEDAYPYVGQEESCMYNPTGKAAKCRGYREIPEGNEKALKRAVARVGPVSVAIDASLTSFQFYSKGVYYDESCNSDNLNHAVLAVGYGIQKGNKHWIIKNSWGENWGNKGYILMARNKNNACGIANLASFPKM
- assay overview: Inhibitory activity against recombinant human cathepsin K
reported property: IC50 (µM)

C/C=C\C[C@@H](C=O)NC(=O)OC(C)(C)C    0.041

I. CSCC[C@@H](C=O)NC(=O)OC(C)(C)C
II. CC(C)(C)OC(=O)N[C@H](C=O)CCc1ccccc1
III. CC(C)(C)C[C@@H](C=O)NC(=O)OC(C)(C)C
IV. CC(C)(C)OC(=O)N[C@H](C=O)c1ccccc1
V. CC(C)(C)OC(=O)NCC=O
Please order the records by their reported IC50, lowest number first. Order the labels as requested and give them as your answer.
II, IV, I, III, V
(II: 0.03 µM, IV: 0.051 µM, I: 0.078 µM, III: 0.25 µM, V: 5.8 µM)
